# reported GI50; entries follow
system: DMS-114; experiment: NCI tumour cell line growth inhibition, 48 h
Active and inactive are the calls of the source. Cut-off read from the data, not from the text of the source: active = GI50 up to about 1.1 µM and inactive = higher.

{"columns": ["compound", "GI50"],
 "data": [
  ["N=C1SCCS1", "> 100 µM (inactive)"],
  ["CCOC(=O)Oc1ccc2[nH]c3c(C)cc(N)c(C)c3c2c1", "46.7 µM (inactive)"],
  ["COc1cc2c(c(OC)c1OC)-c1ccc(SC)c(=O)cc1[C@@H](NCc1cccc([N+](=O)[O-])c1)CC2", "< 0.01 µM (active)"],
  ["O=C1c2c(O)cccc2C(C(=O)CCCC(=O)C2c3cccc(O)c3C(=O)c3c(O)cccc32)c2cccc(O)c21", "0.116 µM (active)"],
  ["O=C(Nc1cccc([N+](=O)[O-])c1)/C(=N\\NC(=O)c1ccncc1)c1nc2ccc([N+](=O)[O-])cc2nc1O", "13.9 µM (inactive)"],
  ["NC(=O)c1cccc([N+](=O)[O-])c1", "> 100 µM (inactive)"],
  ["CC(C)(C)C1CCC(CI)(N=[N+]=[N-])CC1 (stereo not drawn)", "> 100 µM (inactive)"],
  ["c1ccc(SC(CCCCC(Sc2ccccc2)Sc2ccccc2)Sc2ccccc2)cc1", "> 100 µM (inactive)"]
]}

###

# reported GI50; entries follow
system: OVCAR-8; experiment: NCI tumour cell line growth inhibition, 48 h
The source made the active and inactive calls. Rule as the data show it: active = GI50 up to about 1.1 µM and inactive = higher.

{"columns": ["compound", "GI50"],
 "data": [
  ["CCc1c[n+]([O-])c(C)cc1[N+](=O)[O-]", "46.2 µM (inactive)"],
  ["O=C1OC2C=CC1C1(CCOC1=O)C2 (stereo not given)", "> 100 µM (inactive)"],
  ["Nn1c(Nc2ccc(S(=O)(=O)Nc3ncccn3)cc2)nnc(/C=C/c2c(O)ccc3ccccc23)c1=O", "34.6 µM (inactive)"],
  ["O=[N+]([O-])c1ccc(C2CC(c3ccccc3Cl)=Nc3ccccc3S2)cc1 (stereo not given)", "2.2 µM (inactive)"],
  ["C[C@H](NC(=O)c1ccc(CNC(=O)/C=C/c2cccc(Oc3ccccc3)c2)cc1)c1ccccc1", "> 100 µM (inactive)"]
]}

###

tested on: U-251; test: NCI tumour cell line growth inhibition, 48 h
Active and inactive are the calls of the source. No stated cut-off is given here; in the data, active = GI50 up to about 1.1 µM and inactive = higher.
readout type: GI50

{"columns": ["compound", "readout value"],
 "data": [
  ["Cn1c(=O)c2sc3cc4c(cc3c2c2ccccc21)sc1c(=O)n(C)c2ccccc2c14", "19 µM (inactive)"],
  ["O=C1C=CC=C/C1=C1\\N=C(c2ccccc2OCC(=O)c2ccc(Br)cc2)SS1", "40.3 µM (inactive)"],
  ["Cc1ccc(C(=N)c2ccccc2Cc2cccc3ccccc23)c2ccccc12", "> 100 µM (inactive)"],
  ["CCCCCCCCCCCCCCCCCCOCC(O)CO (stereo not given)", "> 25 µM (inactive)"],
  ["CCOc1ccc(/N=N/c2ccc3oc(=O)c(/C(C)=N\\NC(=O)CC(=O)Nc4ccc(Cl)cc4)cc3c2)cc1", "16.4 µM (inactive)"],
  ["COc1ccc(OC)c(CSc2ccc(OC)c(OC)c2)c1", "> 94.2 µM (inactive)"],
  ["COc1ccc(C2=Nc3cc(C)c(C)cc3NC(c3ccccc3)C2)cc1 (stereo not given)", "> 100 µM (inactive)"],
  ["COCC(=O)OC1CCn2c1nc1c2C(=O)C(C)=C(NC(C)=O)C1=N (stereo not given)", "5.38 µM (inactive)"],
  ["O=C(NCCCn1ccnc1[N+](=O)[O-])C(=O)NCCCn1ccnc1[N+](=O)[O-]", "> 100 µM (inactive)"],
  ["CC(C)OP(=O)(OC(C)C)c1c(N)n[nH]c1Nc1ccccc1", "> 100 µM (inactive)"]
]}

###

test system: HL-60; test: NCI tumour cell line growth inhibition, 48 h
Activity calls are given as the source filed them. Rule as the data show it: active = GI50 up to about 1.1 µM and inactive = higher.
Possible outcomes: T = active, F = inactive

{"columns": ["compound", "classification"],
 "data": [
  ["N#Cc1ccc2cc3c(cc2c1)OCO3", "F"],
  ["CN1CCN(C(=S)N(C(=O)c2cccs2)C2CCCCC2)CC1", "F"],
  ["Cc1c(CCCl)c(=O)n2c([nH]c3ccccc32)c1C#N", "F"],
  ["CCCCCCCCCCCCCCNC(=O)CCC(NC(=O)c1ccc(N(C)Cc2cnc3nc(N)nc(N)c3n2)cc1)C(=O)NCCCCCCCCCCCCCC (configuration not stated)", "T"],
  ["Cc1c(C(=O)OCc2ccccc2)[n+]([O-])c2ccccc2[n+]1[O-]", "F"],
  ["CCOC(=O)/C(C[C@H]1OC(C)(C)O[C@@H]1[C@H]1COC(C)(C)O1)=N/O", "F"],
  ["COc1ccccc1OCC(COC(=O)Nc1ccc(C)cc1)OC(=O)Nc1ccc(C)cc1 (configuration not stated)", "F"],
  ["COc1ccc2cc(/C=N\\NC(=O)Nc3ccc([N+](=O)[O-])cc3)ccc2c1", "F"],
  ["O=C(CCC(C(=O)OCc1ccccc1)C(=O)OCc1ccccc1)Nc1ccc(OCc2ccccc2)cc1", "F"],
  ["NNC(=O)c1c(Cl)c(Cl)c(Cl)c(Cl)c1-c1nc2ccccc2[nH]1", "F"],
  ["CC(C)=CCC/C(C)=C/CC/C(C)=C/CC/C(C)=C/CC/C(C)=C/CC/C(C)=C/CC/C(C)=C/CC/C(C)=C/CC/C(C)=C/CO", "F"],
  ["O=Cc1c2c(cc3c1CC1(C3)Cc3cc4c(c(C=O)c3C1)CCCC4)CCCC2", "F"],
  ["c1ccc(SC(CCCCC(Sc2ccccc2)Sc2ccccc2)Sc2ccccc2)cc1", "F"],
  ["COc1cc(/C=N\\NC(=O)C[N+](C)(C)C)cc(OC)c1OC", "F"],
  ["CCOC(=O)c1csc(NC(=O)CN2CCN(C)CC2)n1", "F"],
  ["O=C1OC(c2ccc(Cl)c3ccccc23)c2ccccc21 (configuration not stated)", "F"],
  ["CSc1ccc2c(cc1=O)C(NC(=O)c1ccccc1)CCc1cc(O)c(O)c(O)c1-2 (configuration not stated)", "F"],
  ["Nc1nc(=O)c2cc(NCc3ccc(C(=O)NC(CCC(=O)O)C(=O)O)cc3)ccc2[nH]1 (configuration not stated)", "F"],
  ["Nn1c(Nc2ccc(S(=O)(=O)Nc3ncccn3)cc2)nnc(/C=C/c2c(O)ccc3ccccc23)c1=O", "F"],
  ["CCc1cc2c(c3c1CCCC3=O)CC1(C2)Cc2cc(CC)c3c(c2C1)C(=O)CCC3", "F"],
  ["COc1c(OC(C)C)c(OC(C)C)c2oc(=O)n3c2c1C(c1ccccc1-n1c(C)ccc1C)C=C3 (configuration not stated)", "F"],
  ["CC(=O)c1cc2ccccc2oc1=O", "F"],
  ["CC(CC(N)C(=O)O)C(=O)O (configuration not stated)", "F"],
  ["C[C@]12C=CC(=O)C=C1CC[C@@H]1[C@@H]2CC[C@@]2(C)[C@H]1CC[C@]2(O)C(N)=O", "F"],
  ["O=c1c2ccccc2oc2c1ccc1ncccc12", "F"],
  ["CCC(=O)Oc1c2ccsc2c(OC(=O)CC)c2ccsc12", "T"],
  ["CN(C)Cc1c[nH]c2ncnc(O)c12", "F"],
  ["Nc1nc[n+](Cc2ccccc2)c2ncn(Cc3ccccc3)c12", "F"],
  ["COc1cc2c(cc1OC)C(O)[C@H](Br)C(C)(C)O2 (some centres not stated)", "F"],
  ["C1CNCCNCCN1", "F"],
  ["Cc1cn([C@@H]2O[C@H](CO[Si](C)(C)C(C)(C)C)[C@]3(O[C@H]3C(=O)NN)[C@H]2O[Si](C)(C)C(C)(C)C)c(=O)[nH]c1=O", "F"],
  ["CCCCCCCCCCCCCC1=C(O)C(=O)C(CC2=C(O)C(=O)C(CCCCCCCCCCCCC)=C(O)C2=O)=C(O)C1=O", "F"]
]}

###

system: RPMI-8226; assay: NCI tumour cell line growth inhibition, 48 h
Calls of active or inactive are those of the source. No stated cut-off is given here; in the data, active = GI50 up to about 1.1 µM and inactive = higher. Non-standard residues stand in square brackets, D forms with d. Residues, ends and D or L forms follow the SMILES beside them. ΔPro = O=C(O)[CH]1C=CCN1
Possible outcomes: true for active, false for inactive

{"columns": ["compound", "classification"],
 "data": [
  ["O=C(O)C1C=CCN1C(=O)C1C=CCN1C(=O)C1C=CCN1 (stereo unspecified) (H-[ΔPro]-[ΔPro]-[ΔPro]-OH; configuration not given here)", "false"],
  ["CCOC(=O)Oc1ccc2[nH]c3c(C)cc(N)c(C)c3c2c1", "false"],
  ["O=C1c2c(O)cccc2C(C(=O)CCCC(=O)C2c3cccc(O)c3C(=O)c3c(O)cccc32)c2cccc(O)c21", "true"],
  ["C1CNCCNCCN1", "false"],
  ["NC(=O)c1cccc([N+](=O)[O-])c1", "false"],
  ["C/C=C/[C@H]1O[C@@](O)([C@@H](C)[C@H](O)[C@H](C)[C@H]2OC(=O)/C(OC)=C/C(C)=C/[C@@H](C)[C@@H](O)[C@@H](CC)[C@@H](O)[C@H](C)C/C(C)=C/C=C/[C@@H]2OC)C[C@H](OC2CC(O)C(OC(N)=O)C(C)O2)[C@@H]1C (stereo partly specified)", "true"]
]}
